Target: Delta-type opioid receptor (Homo sapiens, UniProt P41143)
Sequence (P41143 whole entry): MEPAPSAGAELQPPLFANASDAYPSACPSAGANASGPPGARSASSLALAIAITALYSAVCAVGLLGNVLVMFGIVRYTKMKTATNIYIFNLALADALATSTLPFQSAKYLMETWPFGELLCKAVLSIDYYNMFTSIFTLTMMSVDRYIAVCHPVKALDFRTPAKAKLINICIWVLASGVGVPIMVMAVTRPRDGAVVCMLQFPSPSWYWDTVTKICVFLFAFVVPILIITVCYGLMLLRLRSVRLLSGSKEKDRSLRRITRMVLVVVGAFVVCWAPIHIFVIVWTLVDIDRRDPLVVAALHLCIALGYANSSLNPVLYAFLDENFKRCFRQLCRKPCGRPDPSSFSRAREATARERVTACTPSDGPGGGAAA
Assay: Displacement of [3H]bremazocine from human delta opioid receptor expressed in CHO cells in presence of high sodium by SPA
Readout Label: Ki

Example entries begin here.
NC(=O)c1ccnc(Oc2ccc(CCNCc3ccccc3)cc2)c1 > 5 µM
N#Cc1ccc(Oc2ccc(CCNCc3ccccc3)cc2)nc1 > 5 µM

Please indicate Ki recorded for O=C(O)c1ccc(Oc2ccc(CCNCc3ccccc3)cc2)nc1
> 5 µM

* * *

Catalogue of pKi values
Biological target: Delta-type opioid receptor (Homo sapiens, UniProt P41143)
Experiment: Displacement of [3H]bremazocine from human delta opioid receptor expressed in CHO cells in presence of high sodium by SPA
pKi: −log10 of the molar value.

Example entries begin here.
O=C(c1ccc(Oc2ccc(CNCCc3ccccc3)cc2)nc1)N1CCCCC1 < 5.30
NCc1ccc(Oc2ccc(CCNCc3ccccc3)cc2)nc1 < 5.30
NC(=O)c1cccnc1Oc1ccc(CCNCc2ccccc2)cc1 < 5.30

Please indicate pKi recorded for NS(=O)(=O)c1ccc(Oc2ccc(CCNCc3ccccc3)cc2)cc1
< 5.30

Please indicate pKi recorded for NC(=O)c1ccc(Oc2ccc(CNCCc3ccccc3)cc2)cn1
8.07

Please indicate pKi recorded for NC(=O)c1cccc(Oc2ccc(CCNCc3ccccc3)cc2)n1
< 5.30

Please indicate pKi recorded for C[C@H]1CN(CC[C@H](O)C2CCCCC2)CC[C@@]1(C)c1cccc(O)c1
8.32
